This collection of values is drawn from patent US10081635B2.

// reported inhibition at 1 µM per item
- target-system: Human JAK3 (Homo sapiens (Human), UniProt P52333)
- Sequence (P52333 whole entry): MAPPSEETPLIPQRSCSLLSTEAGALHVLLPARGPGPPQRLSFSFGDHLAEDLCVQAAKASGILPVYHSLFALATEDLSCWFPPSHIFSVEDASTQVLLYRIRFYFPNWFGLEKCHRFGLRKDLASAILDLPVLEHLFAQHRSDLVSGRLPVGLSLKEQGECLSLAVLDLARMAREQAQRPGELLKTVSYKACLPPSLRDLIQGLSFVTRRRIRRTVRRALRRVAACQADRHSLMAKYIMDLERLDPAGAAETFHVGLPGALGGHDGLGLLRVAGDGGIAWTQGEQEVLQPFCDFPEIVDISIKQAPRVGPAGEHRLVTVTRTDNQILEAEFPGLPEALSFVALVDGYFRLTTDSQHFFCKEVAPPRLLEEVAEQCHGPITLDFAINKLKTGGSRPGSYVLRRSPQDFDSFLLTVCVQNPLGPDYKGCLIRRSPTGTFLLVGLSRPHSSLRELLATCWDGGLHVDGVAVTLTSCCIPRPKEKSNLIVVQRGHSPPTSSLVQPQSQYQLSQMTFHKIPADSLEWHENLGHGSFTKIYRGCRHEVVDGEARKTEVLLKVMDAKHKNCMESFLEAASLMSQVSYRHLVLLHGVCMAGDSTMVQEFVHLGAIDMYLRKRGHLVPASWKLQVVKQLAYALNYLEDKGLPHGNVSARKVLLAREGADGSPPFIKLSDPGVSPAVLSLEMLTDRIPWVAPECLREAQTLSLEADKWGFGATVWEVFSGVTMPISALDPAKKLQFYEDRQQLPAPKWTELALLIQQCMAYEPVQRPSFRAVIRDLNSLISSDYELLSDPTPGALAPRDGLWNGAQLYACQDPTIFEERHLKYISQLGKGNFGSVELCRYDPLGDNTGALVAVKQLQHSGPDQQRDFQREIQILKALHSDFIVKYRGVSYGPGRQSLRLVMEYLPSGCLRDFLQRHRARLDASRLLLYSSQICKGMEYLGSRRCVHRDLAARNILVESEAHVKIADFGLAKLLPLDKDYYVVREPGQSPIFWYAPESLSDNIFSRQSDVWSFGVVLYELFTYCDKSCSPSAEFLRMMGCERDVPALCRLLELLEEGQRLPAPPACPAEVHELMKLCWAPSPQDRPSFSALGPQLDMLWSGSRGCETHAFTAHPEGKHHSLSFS
- protocol: In vitro kinase inhibition test, JAK3 (33P-ATP filter scintillation)
- Assay type: biochemical
- assay-context: compound at 1 uM; read-out: JAK3 kinase-phosphorylation inhibitory level (% inhibition)
Please reply with the bare figure in % and do not write the unit itself.

// worked examples, inhibition at 1 µM included
chem-smiles	inhibition at 1 µM / %
CN(c1ncnc2[nH]ccc12)[C@H]1CN(C(=O)Nc2ccc(Cl)c(Cl)c2)CC12CC2	51
CN(c1ncnc2[nH]ccc12)[C@H]1CN(S(=O)(=O)c2cccc(F)c2)CC12CC2	84
CN(c1ncnc2[nH]ccc12)[C@@H]1CN(C(=O)c2ccc(C#N)cc2)CC12CC2	-7
Cc1cccc(S(=O)(=O)N2C[C@H](N(C)c3ncnc4[nH]ccc34)C3(CC3)C2)c1	62
CCN1C[C@H](N(C)c2ncnc3[nH]ccc23)C2(CC2)C1	1
CN(c1ncnc2[nH]ccc12)[C@H]1CN(C(=O)CC#N)CC12CC2	50

The record that follows has no inhibition at 1 µM shown yet.
What does the record list as inhibition at 1 µM for CC(C)S(=O)(=O)N1C[C@H](N(C)c2ncnc3[nH]ccc23)C2(CC2)C1 ? 56
